Biological target: T1, human GIP receptor (human, UniProt P48546 22-466)
T1 sequence (looked up): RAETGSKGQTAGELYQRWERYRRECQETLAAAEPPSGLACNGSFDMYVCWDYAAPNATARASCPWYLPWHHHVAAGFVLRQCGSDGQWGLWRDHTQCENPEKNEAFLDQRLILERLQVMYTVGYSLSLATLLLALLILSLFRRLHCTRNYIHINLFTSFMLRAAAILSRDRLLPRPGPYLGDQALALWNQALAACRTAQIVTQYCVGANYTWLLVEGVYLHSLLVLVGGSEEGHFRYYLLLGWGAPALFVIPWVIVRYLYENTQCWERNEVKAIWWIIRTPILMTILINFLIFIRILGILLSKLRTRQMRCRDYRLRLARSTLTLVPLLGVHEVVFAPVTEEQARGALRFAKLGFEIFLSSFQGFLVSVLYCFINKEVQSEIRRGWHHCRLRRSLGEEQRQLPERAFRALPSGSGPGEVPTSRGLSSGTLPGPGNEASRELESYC
Assay: cell-based or functional assay
Numbered stars: 1 amine (or outer) side, 2 acyl side, 3 side chain; on linkers, the order of the positions; unused ones are H or OH. Square brackets hold non-standard residues; d marks the D form. Side chains are listed from the residue outwards. * marks the point of attachment. C18 diacid = O=C(O)CCCCCCCCCCCCCCCCC(=O)*; γGlu = O=C(O)[C@H](CCC(=O)[*:2])N[*:1]; Chem. 28 = not defined here; AEEA = NCCOCCOCC(=O)O; Aib = CC(C)(N)C(=O)O
quantity: hGIPR Potency, no HSA, EC50 [pM]

Briefly, hGIPR Potency, no HSA, EC50 [pM] measured for Compound 37 (reading uncertain) peptide: H[Aib]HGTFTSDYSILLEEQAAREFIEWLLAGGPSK(Chem. 28)GAPPPSGGGEASHLSTAQTARLSAELHRLADLPRTETGSGSP-NH2 : 2.34 pM

Briefly, hGIPR Potency, no HSA, EC50 [pM] measured for Compound 63 (peptide) peptide: H[Aib]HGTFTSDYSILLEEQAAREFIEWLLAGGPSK([AEEA-AEEA-γGlu-C18 diacid])GEASQLSTAALGRLSAELHTLATLPRTETGSGSP-NH2 : 1.6 pM

Briefly, hGIPR Potency, no HSA, EC50 [pM] measured for Compound 87 (peptide) peptide: H[Aib]HGTFTSDYSILLEEQAAREFIEWLLAGGPSSGEASHLSTAALGRLSAK([AEEA-AEEA-γGlu-C18 diacid])LHRLATLPRTETGSGSP-NH2 : 7.26 pM

Briefly, hGIPR Potency, no HSA, EC50 [pM] measured for Compound 78 (peptide) peptide: H[Aib]HGTFTSDYSILLEEQAAREFIEWLLAGGPSSGAGQAPGQAPGASHLSTAQTQRLSAK([AEEA-AEEA-γGlu-C18 diacid])LHRLATLPRTETGSGSP-NH2 : 3.49 pM

Briefly, hGIPR Potency, no HSA, EC50 [pM] measured for Compound 54 (reading uncertain) peptide: Y[Aib]EGTFTSDYSILLEEQAAREFIEWLLAGGPSSGAGQAPGQAPGASK(Chem. 28)LSTAQTQRLSAELHRLATLPRTETGSGSP-NH2 : 5.56 pM

Briefly, hGIPR Potency, no HSA, EC50 [pM] measured for Compound 29 (reading uncertain) peptide: Y[Aib]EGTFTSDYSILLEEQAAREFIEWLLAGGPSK(Chem. 28)GEASELSTAALGRLSAELHYLATLPRTETGSGSP-NH2 : 2.62 pM

Briefly, hGIPR Potency, no HSA, EC50 [pM] measured for Compound 23 (reading uncertain) peptide: Y[Aib]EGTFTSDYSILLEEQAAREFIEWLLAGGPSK(Chem. 28)GALAQTLGTNEASELSTAALGRLSAELHELATLPRTETGSGSP-NH2 : 1.2 pM

Briefly, hGIPR Potency, no HSA, EC50 [pM] measured for Compound 47 (reading uncertain) peptide: H[Aib]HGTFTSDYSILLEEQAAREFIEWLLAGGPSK(Chem. 28)GAGQAPGQAPGASHLSTAQTQRLSAELHELATLPRTETGSGSP-NH2 : 2.02 pM
